These entries and their values trace back to ChEMBL document CHEMBL1800049.

Measured Papp B→A at […], 10 µM values are reported for all entries that follow.
Experiment: Permeability from basolateral to apical side of human Caco2 cells at 10 uM after […] by HPLC-MS/MS analysis
Format: ADME, cell-based
Conditions: Caco-2, read-out: permeability
Remember to quote the unit after the number.

CC(C)(C)c1ccc2oc(N3CCCN(C(=O)C4CCOCC4)CC3)nc2c1    64 ×10⁻⁶ cm/s

Complete the entry with Papp B→A at […], 10 µM for O=C(C1CCOCC1)N1CCCN(c2nc3ccc(Cl)cc3s2)CC1
71 ×10⁻⁶ cm/s

Complete the entry with Papp B→A at […], 10 µM for O=C(C1CCOCC1)N1CCCN(c2nc(C(F)(F)F)c(Cl)s2)CC1
70 ×10⁻⁶ cm/s

Complete the entry with Papp B→A at […], 10 µM for CC(C)(C)c1cc(NC(=O)N2CCCN(C(=O)C3CCOCC3)CC2)no1
42 ×10⁻⁶ cm/s

Complete the entry with Papp B→A at […], 10 µM for O=C(C1CCOCC1)N1CCCN(c2nc(-c3ccccc3)ns2)CC1
61 ×10⁻⁶ cm/s
